tested on: P388; assay: Cytotoxicity against mouse P388 cells after 72 hrs by MTT assay; format: functional; conditions: P388, 72 h, read-out: ID50 (the source's name)
Measurement Label: IC50
Please answer using the number first and the unit second.

Guide cases for IC50, answers given:
Smiles Text	Measurement Target	IC50
CSc1c(SCC#CCO)cnc2ccccc12	P388	32.3 µg/mL
CSc1cnc2ccccc2c1[Se]CC#CCO	P388	2.6 µg/mL

Turning to the following compound.
For reference, reported IC50 for OCC#CCSc1cnc2ccccc2c1[Se]CC#CCBr stands at 1.6 µg/mL

* * *

experiment: Cytotoxicity against human SW707 cells after 72 hrs by SRB assay; assay type: functional; settings: SW707, 72 h, read-out: ID50 (the source's name)
So basically: is IC50 under 4 µg/mL? Then condition met. Not under? Then condition not met.

Worked set:
Smiles Text	Class
OCC#CCSc1cnc2ccccc2c1SCC#CCO	condition not met
COc1c(SCC#CCO)cnc2ccccc12	condition not met
C#CCSc1cnc2ccccc2c1SCC#CC[Se]c1c(SCC#CC)cnc2ccccc12	condition not met

Here is the next item to consider.
Problem: Is IC50 strictly under 4 µg/mL for the entry CSc1cnc2ccccc2c1[Se]CC#CCO ?
Solution: condition met

Measured values drawn from ChEMBL document CHEMBL1157346 for this set.
